Target protein (sequence): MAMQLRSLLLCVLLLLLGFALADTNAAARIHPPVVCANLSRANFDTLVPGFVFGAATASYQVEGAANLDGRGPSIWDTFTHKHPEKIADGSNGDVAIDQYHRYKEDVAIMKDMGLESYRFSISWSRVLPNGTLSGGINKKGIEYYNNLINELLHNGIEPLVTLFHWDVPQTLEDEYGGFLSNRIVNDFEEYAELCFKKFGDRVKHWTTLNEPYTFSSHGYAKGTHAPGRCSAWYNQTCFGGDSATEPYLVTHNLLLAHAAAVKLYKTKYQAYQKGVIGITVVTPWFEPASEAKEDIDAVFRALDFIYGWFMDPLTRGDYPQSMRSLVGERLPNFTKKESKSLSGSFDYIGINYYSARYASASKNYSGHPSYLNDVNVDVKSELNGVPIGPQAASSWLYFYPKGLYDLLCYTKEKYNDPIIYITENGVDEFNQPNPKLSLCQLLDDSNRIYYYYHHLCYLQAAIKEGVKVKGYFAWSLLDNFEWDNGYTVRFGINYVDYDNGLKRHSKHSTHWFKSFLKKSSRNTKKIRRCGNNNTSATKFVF
measured-endpoint: Ki (mM)

molecule="OC[C@H]1O[C@@H](Oc2ccc(C(F)F)cc2)[C@H](O)[C@@H](O)[C@@H]1O [Glucosidase inhibitor, 6a]" measured_endpoint=Ki value=1.7
molecule="COc1cc(C(F)F)cc(OC)c1O[C@@H]1O[C@H](CO)[C@@H](O)[C@H](O)[C@H]1O [Glucosidase inhibitor, 6d]" measured_endpoint=Ki value=1.9
molecule="COc1cc(CF)ccc1O[C@@H]1O[C@H](CO)[C@@H](O)[C@H](O)[C@H]1O [Glucosidase inhibitor, 11]" measured_endpoint=Ki value=0.8
molecule="COc1cc(C(F)F)ccc1O[C@@H]1O[C@H](CO)[C@@H](O)[C@H](O)[C@H]1O [Glucosidase inhibitor, 6b]" measured_endpoint=Ki value=0.06

Every entry's value here was drawn from BindingDB's records for doi:10.7270/Q20R9MZM.
